- TEST_DESCRIPTION: Metabolism of compound [125I](1)
- Format: in vivo, mice
- CONDITION_INFO: Kidney, 1 h after [125I](1) injection
MEASUREMENT_TYPE: % of radioactivity (%)

MOLECULE	MEASUREMENT_TYPE	NUMERIC_VALUE
O=C(O)c1cnc2cc([125I])ccc2n1 [Acid [^125I]I]	% of radioactivity	29.0
NCCNC(=O)c1cnc2cc([125I])ccc2n1 [Amine [^125I]I]	% of radioactivity	18.5
[125IH] [[^125I]I^−]	% of radioactivity	20.5
CCN(CCNC(=O)c1cnc2cc([125I])ccc2n1)CCOCCOCCOCCF [[^125I](1)]	% of radioactivity	12.5

###

- TEST_DESCRIPTION: Metabolism of compound [125I](1)
- Format: in vivo, mice
- CONDITION_INFO: Feces, first value column (grid: 1 h; faeces collected 0-24 h)
Label rule, in plain words: % of radioactivity of 8% and up is Criterion met, under 8% is Criterion not met.

COMPOUND	CATEGORY_LABEL
CCNCCNC(=O)c1cnc2cc([125I])ccc2n1 [Amine [^125I]II]	Criterion not met
O=C(O)c1cnc2cc([125I])ccc2n1 [Acid [^125I]I]	Criterion not met
CCN(CCNC(=O)c1cnc2cc([125I])ccc2n1)CCOCCOCCOCCF [[^125I](1)]	Criterion not met
O=C(O)CNC(=O)c1cnc2cc([125I])ccc2n1 [Acid [^125I]II]	Criterion not met
NCCNC(=O)c1cnc2cc([125I])ccc2n1 [Amine [^125I]I]	Criterion met

###

# key: entry, value: % of radioactivity
- TEST_DESCRIPTION: Metabolism of compound [125I](1)
- Assay type: in vivo, mice
- CONDITION_INFO: Urine, 24 h after [125I](1) injection

MOLECULE	UNITS_SYMBOL	% of radioactivity
O=C(O)CNC(=O)c1cnc2cc([125I])ccc2n1 [Acid [^125I]II]	%	6.5
[125IH] [[^125I]I^−]	%	85.0
NCCNC(=O)c1cnc2cc([125I])ccc2n1 [Amine [^125I]I]	%	0.0
CCN(CCNC(=O)c1cnc2cc([125I])ccc2n1)CCOCCOCCOCCF [[^125I](1)]	%	0.0
O=C(O)c1cnc2cc([125I])ccc2n1 [Acid [^125I]I]	%	3.5

###

- TEST_DESCRIPTION: Metabolism of compound [125I](1)
- Assay type: in vivo, mice
- CONDITION_INFO: Kidney, 3 h after [125I](1) injection

COMPOUND	UNITS_SYMBOL	% of radioactivity
CCN(CCNC(=O)c1cnc2cc([125I])ccc2n1)CCOCCOCCOCCF [[^125I](1)]	%	6.1
[125IH] [[^125I]I^−]	%	37.2
NCCNC(=O)c1cnc2cc([125I])ccc2n1 [Amine [^125I]I]	%	11.7
O=C(O)c1cnc2cc([125I])ccc2n1 [Acid [^125I]I]	%	34.2

###

- TEST_DESCRIPTION: Metabolism of compound [125I](1)
- Format: in vivo, mice
- CONDITION_INFO: Urine, 72 h after [125I](1) injection
MEASUREMENT_TYPE: % of radioactivity (%)

COMPOUND	MEASUREMENT_TYPE	NUMERIC_VALUE
O=C(O)CNC(=O)c1cnc2cc([125I])ccc2n1 [Acid [^125I]II]	% of radioactivity	0.0
[125IH] [[^125I]I^−]	% of radioactivity	99.0
O=C(O)c1cnc2cc([125I])ccc2n1 [Acid [^125I]I]	% of radioactivity	0.0
CCN(CCNC(=O)c1cnc2cc([125I])ccc2n1)CCOCCOCCOCCF [[^125I](1)]	% of radioactivity	0.0
NCCNC(=O)c1cnc2cc([125I])ccc2n1 [Amine [^125I]I]	% of radioactivity	0.0

###

- TEST_DESCRIPTION: Metabolism of compound [125I](1)
- Format: in vivo, mice
- CONDITION_INFO: Urine, 1 h after [125I](1) injection
MEASUREMENT_TYPE: % of radioactivity (%)

COMPOUND	NUMERIC_VALUE
[125IH] [[^125I]I^−]	25.7
CCN(CCNC(=O)c1cnc2cc([125I])ccc2n1)CCOCCOCCOCCF [[^125I](1)]	12.6
NCCNC(=O)c1cnc2cc([125I])ccc2n1 [Amine [^125I]I]	6.6
O=C(O)c1cnc2cc([125I])ccc2n1 [Acid [^125I]I]	17.2
O=C(O)CNC(=O)c1cnc2cc([125I])ccc2n1 [Acid [^125I]II]	30.3

###

- TEST_DESCRIPTION: Metabolism of compound [125I](1)
- Type: in vivo, mice
- CONDITION_INFO: Feces, (grid: 3 h; faeces collected 24-48 h)
Label rule, in plain words: % of radioactivity of 8% and up is 1.0, under 8% is 0.0.

COMPOUND	CATEGORY_LABEL
NCCNC(=O)c1cnc2cc([125I])ccc2n1 [Amine [^125I]I]	1.0
CCNCCNC(=O)c1cnc2cc([125I])ccc2n1 [Amine [^125I]II]	0.0
CCN(CCNC(=O)c1cnc2cc([125I])ccc2n1)CCOCCOCCOCCF [[^125I](1)]	0.0
[125IH] [[^125I]I^−]	1.0
O=C(O)CNC(=O)c1cnc2cc([125I])ccc2n1 [Acid [^125I]II]	0.0

###

# key: entry, value: octanol/water (PBS buffer) partition coefficient (log D)
- TEST_DESCRIPTION: octanol/water (PBS buffer) partition coefficient (log D)
- Format: physicochemical
MEASUREMENT_TYPE: octanol/water (PBS buffer) partition coefficient (log D)

COMPOUND	NUMERIC_VALUE
CCN(CCNC(=O)c1cnc2cc(I)ccc2n1)CCOCCOCCOCCOCCOCCOCCOCC[18F] [[^18F](5)]	0.95
CCN(CCNC(=O)c1cnc2cc([131I])ccc2n1)CCOCCOCCOCCF [[^131I](1)]	0.95
CCN(CCNC(=O)c1cnc2cc(I)ccc2n1)Cc1cn(CC[18F])nn1 [[^18F](7)]	2.22
CCN(CCNC(=O)c1cnc2cc(I)ccc2n1)CCOCCOCCOCC[18F] [[^18F](1)]	1.52

###

# key: entry, value: % of radioactivity
- TEST_DESCRIPTION: Metabolism of compound [125I](1)
- Type: in vivo, mice
- CONDITION_INFO: Urine, 6 h after [125I](1) injection
- Method: 24 primary melanoma bearing mice were intravenously injected with 2.2 MBq of [^1251](1) and sacrificed 1 h, 3 h, 6 h, 24 h, 72 h and 10 days after tracer injection. To determine the metabolic stability of [^1251](1), blood, tumour, eyes, liver, kidney and urine samples were collected at each time point (n=3). […] Urines were analysed without any treatment. The extraction efficiency was determined by measuring the radioactivity of supernatants and precipitates. […]

COMPOUND	% of radioactivity
CCN(CCNC(=O)c1cnc2cc([125I])ccc2n1)CCOCCOCCOCCF [[^125I](1)]	0.0 ± 0.0%
[125IH] [[^125I]I^−]	51.0 ± 4.2%
NCCNC(=O)c1cnc2cc([125I])ccc2n1 [Amine [^125I]I]	3.5 ± 4.9%
O=C(O)c1cnc2cc([125I])ccc2n1 [Acid [^125I]I]	16.0 ± 1.4%
O=C(O)CNC(=O)c1cnc2cc([125I])ccc2n1 [Acid [^125I]II]	21.0 ± 0.0%

###

- TEST_DESCRIPTION: Metabolism of compound [125I](1)
- Assay type: in vivo, mice
- CONDITION_INFO: Kidney, 6 h after [125I](1) injection
# key: entry, value: % of radioactivity
MEASUREMENT_TYPE: % of radioactivity (%)

COMPOUND	UNITS_SYMBOL	NUMERIC_VALUE
[125IH] [[^125I]I^−]	%	57.0
CCN(CCNC(=O)c1cnc2cc([125I])ccc2n1)CCOCCOCCOCCF [[^125I](1)]	%	0.0
NCCNC(=O)c1cnc2cc([125I])ccc2n1 [Amine [^125I]I]	%	0.0
O=C(O)c1cnc2cc([125I])ccc2n1 [Acid [^125I]I]	%	43.0

###

# key: entry, value: % of radioactivity
- TEST_DESCRIPTION: Metabolism of compound [125I](1)
- Assay type: in vivo, mice
- CONDITION_INFO: Urine, 3 h after [125I](1) injection
MEASUREMENT_TYPE: % of radioactivity (%)

MOLECULE	UNITS_SYMBOL	NUMERIC_VALUE
CCN(CCNC(=O)c1cnc2cc([125I])ccc2n1)CCOCCOCCOCCF [[^125I](1)]	%	0.0
NCCNC(=O)c1cnc2cc([125I])ccc2n1 [Amine [^125I]I]	%	13.0
O=C(O)CNC(=O)c1cnc2cc([125I])ccc2n1 [Acid [^125I]II]	%	24.0
[125IH] [[^125I]I^−]	%	30.5
O=C(O)c1cnc2cc([125I])ccc2n1 [Acid [^125I]I]	%	20.0
